# Tested on: PyIESI-1 RRM domain (Plasmodium yoelii PY17X_0911200 aa 795-956, GST fusion)
# Assay procedure: RBNS R-value (6-mer enrichment in protein-bound RNA vs input library) (ratio); higher = stronger binding preference; the methods of the paper give 50 / 100 / 500 nM protein instead
# Protocol conditions: protein concentration: 500 nM
In all, about 4,100 sequences were measured (“RBNS R-value (6-mer enrichment in protein-bound RNA vs input library)”: median about 0.96, highest 2% from about 2.4 on). The sample as a whole holds a higher share of the highest values than the screen did.
Please use Satisfied whenever RBNS R-value is not below 1, and Not satisfied whenever it is.

ACCUCG; Satisfied
CGAUUG; Satisfied
GUCAAU; Not satisfied

IN: Is RBNS R-value for CGAACC at or above 1?
OUT: Satisfied

IN: Tell me whether RBNS R-value is at least 1 here: GCUACG
OUT: Not satisfied

IN: Does the reported RBNS R-value for CUGCCA fall at or above the 1 mark?
OUT: Satisfied

IN: Say whether AGUCAG shows RBNS R-value of 1 or more.
OUT: Not satisfied

IN: API: above_or_equal(metric=RBNS R-value, cutoff=1) for item GGGCAC
OUT: Satisfied

Recorded values, source the supplement of paper PMC13392028.
